Recorded % Viability at 1 μg/mL values for a group of compounds are listed next.
- Tested on: Jurkat cells
- ASSAY NAME: (r) Cell cytotoxicity assay
- Assay type: cell-based, human
- APPLIED CONDITIONS: 1 μg/mL, 24 hours
# output: bare number, implied unit %

Solved cases below.
COMPOUND	MEASUREMENT UNIT	OBSERVED MEASUREMENT
COc1cc(Nc2cc(Oc3ccc(NC(=O)Nc4cc(C(C)(C)C)cc(NC(=O)CO)c4OC)c4ccccc34)ccn2)ccc1C(=O)NCCN1CC[S+]([O-])CC1 [Example 41]	%	90.5
COc1cc(Nc2nccc(Oc3ccc(NC(=O)Nc4cc(C(C)(C)C)cc(NS(C)(=O)=O)c4OC)c4ccccc34)n2)ccc1C(=O)NCCN1CCN(C)CC1 [17(aq)]	%	95.1
COc1cc(Nc2cc(Oc3ccc(NC(=O)Nc4cc(C(C)(C)C)cc(NS(C)(=O)=O)c4OC)c4ccccc34)ccn2)ccc1C(=O)N(C)CCCN1CCOCC1 [17(af)]	%	96.7
COc1cc(Nc2cc(Oc3ccc(NC(=O)Nc4cc(C(C)(C)C)cc(NS(C)(=O)=O)c4OC)c4ccccc34)ccn2)cc(OC)c1C(=O)NCCCN1CCOCC1 [Example 23]	%	92.4
COc1cc(Nc2nccc(Oc3ccc(NC(=O)Nc4cc(C(C)(C)C)cc(NS(C)(=O)=O)c4OC)c4ccccc34)n2)cc(OC)c1C(=O)NCCN1CCN(C)CC1 [17(az)]	%	105.4

For the next question, use this compound.
What does the data say about its % Viability at 1 μg/mL? Entry: COc1cc(Nc2cc(Oc3ccc(NC(=O)Nc4cc(C(C)(C)C)cc(NS(C)(=O)=O)c4OC)c4ccccc34)ccn2)ccc1C(=O)NCC[N+]1([O-])CCOCC1 [Example 33] 104.1

---

- EXPERIMENTAL TARGET: Syk (Homo sapiens (Human), UniProt P43405)
REPORTED ENDPOINT: IC50 (nM)
Could you give me the number in nM? Just the number is fine.

COc1cc(Nc2cc(Oc3ccc(NC(=O)Nc4cc(C(C)(C)C)cc(NS(C)(=O)=O)c4OC)c4ccccc34)ccn2)ccc1P(C)(=O)O 17

We now examine a further compound.
Entry under review: COc1cc(Nc2cc(Oc3ccc(NC(=O)Nc4cc(C(C)(C)C)cc(NS(C)(=O)=O)c4OC)c4ccccc34)ccn2)ccc1S(=O)(=O)N(C)CCN1CCOCC1 . Reported IC50? 948

---

The entries below are paired with their reported % Viability at 1 μg/mL.
- System: Jurkat cells
- ASSAY NAME: (r) Cell cytotoxicity assay
- Assay type: cell-based, human
- APPLIED CONDITIONS: 1 μg/mL, 24 hours
Quick reminder: number only, in %, skip the unit.

Could you share which % Viability at 1 μg/mL value was measured for COc1cc(Nc2cc(Oc3ccc(NC(=O)Nc4cc(C(C)(C)C)cc(NS(C)(=O)=O)c4OC)c4ccccc34)ccn2)ccc1C(=O)NCCCC[C@H](N)C(=O)O ? 92.6

Reported % Viability at 1 μg/mL for COc1cc(Nc2cc(Oc3ccc(NC(=O)Nc4cc(C(C)(C)C)cc(NS(C)(=O)=O)c4OC)c4ccccc34)ccn2)ccc1C(=O)N(C)CCN1CCOCC1 : what is it? 108.6

For the compound shown here, COc1cc(Nc2cc(Oc3ccc(NC(=O)Nc4cc(C(C)(C)C)cc(NS(C)(=O)=O)c4OC)c4ccccc34)ccn2)ccc1C(=O)NCCC1CCN(C)CC1 , give the reported % Viability at 1 μg/mL. 101.9

Form field: reported % Viability at 1 μg/mL of COc1cc(Nc2cc(Oc3ccc(NC(=O)Nc4cc(C(C)(C)C)cc(NS(C)(=O)=O)c4OC)c4ccccc34)ccn2)ccc1C(=O)NCCN1CCN(CCO)CC1 [17(z)] 102.9

---

- Test system: Jurkat cells
- ASSAY NAME: (r) Cell cytotoxicity assay
- Format: cell-based, human
- APPLIED CONDITIONS: 5 μg/mL, 24 hours
Property: % Viability at 5 μg/mL; scope: individual compounds
The answer is to be given in %; state only the numeric part.

COc1c(NC(=O)Nc2ccc(Oc3ccnc(Nc4ccc(C(=O)NCCN5CCN(C)CC5)c(N(C)C)c4)c3)c3ccccc23)cc(C(C)(C)C)cc1NS(C)(=O)=O 55.3
COc1cc(Nc2cc(Oc3ccc(NC(=O)Nc4cc(C(C)(C)C)cc(NS(C)(=O)=O)c4OC)c4ccccc34)ccn2)cc(OC)c1C(=O)NCCN(C)C 87.7
COc1cc(Nc2cc(Oc3ccc(NC(=O)Nc4cc(C(C)(C)C)cc(NS(C)(=O)=O)c4OC)c4ccccc34)ccn2)ccc1C(=O)NCCOCCOCCOP(=O)(O)O 106.0
COc1cc(Nc2cc(Oc3ccc(NC(=O)Nc4cc(C(C)(C)C)cc(NS(C)(=O)=O)c4OC)c4ccccc34)ccn2)ccc1C(=O)NCC(=O)O 96.2
COc1cc(Nc2cc(Oc3ccc(NC(=O)Nc4cc(C(C)(C)C)cc(NS(C)(=O)=O)c4OC)c4ccccc34)ccn2)ccc1C(=O)N(C)CCCN1CCOCC1 76.2
COc1c(NC(=O)Nc2ccc(Oc3ccnc(Nc4ccc(C(=O)O)c(N(C)C)c4)c3)c3ccccc23)cc(C(C)(C)C)cc1NS(C)(=O)=O 90.5
COc1cc(Nc2cc(Oc3ccc(NC(=O)Nc4cc(C(C)(C)C)cc(NS(C)(=O)=O)c4OC)c4ccccc34)ccn2)ccc1S(=O)(=O)N(C)CCN1CCN(C)CC1 19.2
COc1cc(Nc2cc(Oc3ccc(NC(=O)Nc4cc(C(C)(C)C)cc(NS(C)(=O)=O)c4OC)c4ccccc34)ccn2)cc(OC)c1C(=O)NCCOCCOCCO 89.3
COc1cc(Nc2cc(Oc3ccc(NC(=O)Nc4cc(C(C)(C)C)cc(NS(C)(=O)=O)c4OC)c4ccccc34)ccn2)ccc1C(=O)N[C@@H](CO)C(=O)O 96.6
COc1cc(Nc2cc(Oc3ccc(NC(=O)Nc4cc(C(C)(C)C)cc(NS(C)(=O)=O)c4OC)c4ccccc34)ccn2)ccc1C(=O)NCCOCCO 0.2

Can you look up the measured % Viability at 5 μg/mL of COc1cc(Nc2cc(Oc3ccc(NC(=O)Nc4cc(C(C)(C)C)cc(NS(C)(=O)=O)c4OC)c4ccccc34)ccn2)ccc1C(=O)NCCOCCOCCC(=O)O for me? 94.2

Please look up its % Viability at 5 μg/mL: COc1c(NC(=O)Nc2ccc(Oc3ccnc(Nc4ccc(C(=O)NCCN5CCOCC5)c(N(C)C)c4)c3)c3ccccc23)cc(C(C)(C)C)cc1NS(C)(=O)=O 82.4

Endpoint output: % Viability at 5 μg/mL of COc1cc(Nc2cc(Oc3ccc(NC(=O)Nc4cc(C(C)(C)C)cc(C(=O)NCCO)c4OC)c4ccccc34)ccn2)ccc1C(=O)NCCN1CC[S+]([O-])CC1 . Value? 43.1
